Target: isolated recombinant JAK1 kinase domain (Homo sapiens (Human), UniProt P23458)
Sequence (P23458 875-1153): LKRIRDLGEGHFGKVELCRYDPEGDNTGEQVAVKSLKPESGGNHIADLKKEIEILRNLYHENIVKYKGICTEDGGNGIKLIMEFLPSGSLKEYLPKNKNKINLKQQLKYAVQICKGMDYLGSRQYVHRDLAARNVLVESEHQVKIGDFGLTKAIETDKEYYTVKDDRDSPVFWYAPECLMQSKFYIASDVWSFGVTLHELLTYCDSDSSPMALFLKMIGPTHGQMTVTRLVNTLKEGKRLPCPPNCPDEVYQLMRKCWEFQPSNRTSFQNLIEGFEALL
Assay: JAK1 enzyme assay (Caliper LabChip, peptide phosphorylation)
Assay type: biochemical
Details: isolated recombinant JAK1 kinase domain, 25 μM ATP
pKi: −log10 of the molar value.
Respond with 1 (yes) for pKi values of 9 and above, 0 (no) for values below.

record_smiles=CSCCN1CCN(C(=O)Cn2cc(NC(=O)c3cnn4cccnc34)c(-c3cc(Cl)ccc3OC(F)F)n2)CC1 cat="1 (yes)"
record_smiles=Nc1nn2cccnc2c1C(=O)Nc1cn(CC(=O)N2CCC(N3CC[C@@H](O)C3)CC2)nc1-c1cc(Cl)ccc1OC(F)F cat="1 (yes)"
record_smiles=CN(CC(F)(F)F)C1CCN(c2nc(-c3cc(Cl)ccc3OC(F)F)c(NC(=O)c3cnn4cccnc34)s2)CC1 cat="0 (no)"
record_smiles=CN1C[C@@H]2CN(C(=O)c3nc(-c4cc(Cl)ccc4OC(F)F)c(NC(=O)c4cnn5cccnc45)s3)C[C@@H]2C1 cat="0 (no)"

Turning now to a further molecule:
Threshold query (pKi >= 9) on "Nc1nn2cccnc2c1C(=O)Nc1cn(CC(=O)N2CCC(O)(Cc3ccccc3)CC2)nc1-c1cc(Cl)ccc1OC(F)F"
1 (yes)
